Tested System: Cytochrome P450 2C19 (Homo sapiens) (UniProt P33261)
Sequence (P33261 whole entry, looked up): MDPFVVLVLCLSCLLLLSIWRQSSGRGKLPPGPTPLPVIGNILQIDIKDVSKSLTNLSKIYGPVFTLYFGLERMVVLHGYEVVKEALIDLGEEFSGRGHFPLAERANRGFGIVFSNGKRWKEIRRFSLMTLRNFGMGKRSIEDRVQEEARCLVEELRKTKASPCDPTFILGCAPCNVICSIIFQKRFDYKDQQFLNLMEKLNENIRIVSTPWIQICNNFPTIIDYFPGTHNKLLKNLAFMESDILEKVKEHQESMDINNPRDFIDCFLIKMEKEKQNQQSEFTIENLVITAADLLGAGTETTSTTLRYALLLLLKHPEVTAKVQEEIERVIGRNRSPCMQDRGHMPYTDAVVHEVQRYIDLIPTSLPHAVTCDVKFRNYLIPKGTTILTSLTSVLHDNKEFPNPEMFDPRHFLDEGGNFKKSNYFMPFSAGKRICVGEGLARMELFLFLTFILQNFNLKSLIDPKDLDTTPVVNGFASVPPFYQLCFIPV
Method Summary: blockers of cytochrome P450 2C19 activity – biochemical, luminescence, ADME assay, primary screen (AID 778);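 note: plate controls were negative control wells for no effect and 2.5 mM tranylcypromine positive control for full effect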
Setup Conditions: CYP2C19 Supersomes, luciferin-H EGE luminescence, 30 min; at 5 µM; active compounds read high
In all, about 96,000 compounds went through this assay and about 20,000 (21%) were called active. These entries were drawn from the full list.
Measure Name: inhibition (%)
All answers are understood in %, so give the number only.

[
  {
    "Compound": "COc1ccccc1Cc1nc(-c2ccc(C)cc2)no1",
    "Tested System": "Cytochrome P450 2C19 (Homo sapiens) (UniProt P33261)",
    "inhibition [%]": 35.6
  },
  {
    "Compound": "Oc1c(CN2CCN(c3ccc(F)cc3)CC2)cc(Cl)c2cccnc12",
    "Tested System": "Cytochrome P450 2C19 (Homo sapiens) (UniProt P33261)",
    "inhibition [%]": 18.8
  },
  {
    "Compound": "Cc1cc(C(C)(C)C)oc1C(=O)N(CC(=O)NC1CCCC1)Cc1ccc(Cl)cc1",
    "Tested System": "Cytochrome P450 2C19 (Homo sapiens) (UniProt P33261)",
    "inhibition [%]": -5.1
  },
  {
    "Compound": "CCOc1cccc(-n2nnnc2-c2ccc(OC)cc2)c1",
    "Tested System": "Cytochrome P450 2C19 (Homo sapiens) (UniProt P33261)",
    "inhibition [%]": 100
  },
  {
    "Compound": "O=C(c1cn(-c2ccccc2)nc1-c1cccnc1)N1CCCCC1",
    "Tested System": "Cytochrome P450 2C19 (Homo sapiens) (UniProt P33261)",
    "inhibition [%]": 40.6
  }
]

Read the next record carefully.
(Q) # get_value(readout='inhibition', item= "COc1cccc(-c2nn(C)c3sc(C(=O)N4CCN(c5ccccc5)CC4)cc23)c1" )
(A) 23.7
